A collection of compounds and their measured IC50
# ASSAYED_SYSTEM: UniProtKB Q15761
# PROCEDURE_SUMMARY: Human NPY5 receptor binding assay ([125I]PYY, membrane protein)
# MEASUREMENT_SETUP: [125I]PYY binding, read-out: hNPY5 IC50
# Procedure: C. Human and Rat NPY5 Receptor Binding Assays Binding assays are performed on GF/C Millipore 96well plates pretreated with 0.02% polyethylenimine. The binding buffer is 25 mM Tris, 120 mM NaCl, 5 mM KCl, 1.2 mM KH2PO4, 2.5 mM CaCl2, 1.2 mM MgSO4, 0.1% BSA and 0.5 mg/ml bacitracin, pH 7.4. Samples consist of membrane protein, 75-100 pM [125I]PYY (porcine, NEN-DuPont) and drug dilution. […] The amount of radioactivity in each well is quantitated with either gamma counting or liquid scintillation.

Exam item: Name the recorded IC50 of the compound listed here: `O=C(CN1CCC(O)(Cc2ccccc2)CC1)Nc1ccc(C2CCCCC2)cc1`
Marked response: 150 nM

Exam item: Please indicate IC50 recorded for `O=C(CN1CCC(CCCC2CCN(CCO)CC2)CC1)Nc1ccc(C(=O)c2ccccc2)cc1`
Marked response: > 10000 nM

Exam item: Specify reported IC50 for the compound shown: `O=C(CN1CC[C@@H](O)C1)Nc1ccc(C2CCCCC2)cc1`
Marked response: 1400 nM

***
Exam item: Give the reported IC50 for this compound. `O=C(CNCCc1c[nH]c2ccccc12)Nc1ccc(C(=O)c2ccccc2)cc1`
Marked response: > 5000 nM

Exam item: State its IC50 for this compound: O=C(O)CC(NCC(=O)Nc1ccc(C(=O)c2ccccc2)cc1)C(F)(F)F (stereo not drawn)
Marked response: 340 nM

====

# ASSAYED_SYSTEM: Human NPY5 receptor (Homo sapiens, UniProt Q15761)
# PROCEDURE_SUMMARY: Human NPY5 receptor binding assay ([125I]PYY, membrane protein)
# MEASUREMENT_SETUP: [125I]PYY binding, read-out: hNPY5 IC50
IC50 by entry:
Output spec: scalar in nM, unitless text.

Use these answered entries as a reference point.
Exam item: Give reported IC50 for `O=C(CN1CCC(CCCC2CCN(CCO)CC2)CC1)Nc1ccc(C2CCCCC2)cc1` (Human NPY5 receptor (Homo sapiens, UniProt Q15761))
Marked response: 9700

Exam item: State, for Human NPY5 receptor (Homo sapiens, UniProt Q15761), measured IC50 of the compound listed here: `C=CCNCC(=O)Nc1ccc(C2CCCCC2)cc1`
Marked response: 1600

Exam item: For Human NPY5 receptor (Homo sapiens, UniProt Q15761), give IC50 of the listed compound: O=C(O)CC(NCC(=O)Nc1ccc(C2CCCCC2)cc1)C(F)(F)F (centres unmarked)
Marked response: 170

Moving on to the next compound.
Exam item: Look up and report measured IC50 (Human NPY5 receptor (Homo sapiens, UniProt Q15761)) for the following compound: O=C(CN1CCC(O)C1)Nc1ccc(C2CCCCC2)cc1 (centres unmarked)
Marked response: 1300

====

The following molecules are listed with their measured pIC50 values.
# ASSAYED_SYSTEM: Human NPY5 receptor (Homo sapiens)
# Sequence (Q15761 1-445): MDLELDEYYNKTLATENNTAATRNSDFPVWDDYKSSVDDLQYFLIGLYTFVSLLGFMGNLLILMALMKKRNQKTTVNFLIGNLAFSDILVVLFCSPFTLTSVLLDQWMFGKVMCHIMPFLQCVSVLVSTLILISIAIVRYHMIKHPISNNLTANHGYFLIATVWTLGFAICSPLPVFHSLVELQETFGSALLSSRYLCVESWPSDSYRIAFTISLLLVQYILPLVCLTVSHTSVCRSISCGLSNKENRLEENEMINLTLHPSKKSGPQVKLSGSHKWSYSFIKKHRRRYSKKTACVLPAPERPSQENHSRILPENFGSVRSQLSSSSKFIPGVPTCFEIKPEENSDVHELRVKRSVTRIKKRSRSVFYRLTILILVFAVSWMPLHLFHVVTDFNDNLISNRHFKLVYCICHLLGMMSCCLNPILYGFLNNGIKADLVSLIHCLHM
# PROCEDURE_SUMMARY: Human NPY5 receptor binding assay ([125I]PYY, membrane protein)
# MEASUREMENT_SETUP: [125I]PYY, read-out: hNPY5 IC50
# Experimental: C. Human and Rat NPY5 Receptor Binding Assays Binding assays are performed on GF/C Millipore 96well plates pretreated with 0.02% polyethylenimine. The binding buffer is 25 mM Tris, 120 mM NaCl, 5 mM KCl, 1.2 mM KH2PO4, 2.5 mM CaCl2, 1.2 mM MgSO4, 0.1% BSA and 0.5 mg/ml bacitracin, pH 7.4. Samples consist of membrane protein, 75-100 pM [125I]PYY (porcine, NEN-DuPont) and drug dilution. […] The amount of radioactivity in each well is quantitated with either gamma counting or liquid scintillation.
The quantity pIC50 is defined as the negative base-10 logarithm of the molar concentration.

Examples from the recorded data:
Exam item: Give the measured pIC50 for Cl.O=C(CN1CCC(n2c(=O)[nH]c3ccccc32)CC1)Nc1ccc(C(=O)C(=O)c2ccccc2)cc1 [Compound 265, hydrochloride]
Marked response: 8.30

Exam item: Determine from records and report pIC50 for `CCCCc1ccc(NC(=O)CN2CCC(n3c(=O)[nH]c4ccccc43)CC2)cc1`
Marked response: 7.37

Exam item: Look up and report measured pIC50 for this entry: O=C(CN1CCC(n2c(=O)[nH]c3ccccc32)CC1)Nc1ccc([N+](=O)[O-])cc1 [Compound 355, reference compound]
Marked response: 6.70

// switching to the query molecule
Exam item: Supply reported pIC50 belonging to this molecule: CCOc1ccc(NC(=O)CN2CCC(n3c(=O)[nH]c4ccccc43)CC2)c2ccccc12 [Compound 346, reference compound]
Marked response: 7.09

Just for reference, patent US6410792B1 is where these values come from.
